# assayed_system: CSK (human)
# method: radiometric filter-binding kinase assay
# condition_notes: compound 10.0 µM
// NB: equality with 90% counts as false; only residual activity strictly below is true

[
  {
    "molecule": "CCNc1nc(Nc2cc(F)c(C(=O)N3CCOCC3)cc2OC)ncc1C(F)(F)F",
    "class_name": "false"
  },
  {
    "molecule": "COC(=O)/C=C/C(=O)OC",
    "class_name": "true"
  },
  {
    "molecule": "CNc1nc(-c2ccc3c(N)n[nH]c3c2)cc(N2C[C@@H](C(=O)NC3CCCCC3)CC[C@H]2C)n1",
    "class_name": "false"
  },
  {
    "molecule": "Cc1cc(SCc2sc(-c3ccc(C(F)(F)F)cc3)nc2C)ccc1OCC(=O)O",
    "class_name": "false"
  },
  {
    "molecule": "CC1=C(CO)C(=O)O[C@@H]([C@@H](C)[C@H]2CC[C@H]3[C@@H]4C[C@H]5O[C@]56[C@@H](O)C=CC(=O)[C@]6(C)C4CC[C@]23C)C1 (some centres not stated)",
    "class_name": "false"
  },
  {
    "molecule": "NC(=O)c1ccc(-c2ccc(Oc3cncc4sc(-c5nn[nH]n5)cc34)cc2)cc1",
    "class_name": "false"
  },
  {
    "molecule": "COc1cc(C(=O)N2CCOCC2)c(F)cc1Nc1ncc(C(F)(F)F)c(NC2CC2)n1",
    "class_name": "false"
  },
  {
    "molecule": "c1ccc2c(-c3cnn4cc(-c5ccc(N6CCNCC6)cc5)cnc34)ccnc2c1",
    "class_name": "true"
  },
  {
    "molecule": "Cc1ccc(=O)n(-c2ccccc2)c1",
    "class_name": "true"
  },
  {
    "molecule": "O=C(O)c1cc(N=Nc2ccc(S(=O)(=O)Nc3ccccn3)cc2)ccc1O",
    "class_name": "false"
  },
  {
    "molecule": "C[C@H]1CCCC(=O)CCC/C=C/c2cc(O)cc(O)c2C(=O)O1",
    "class_name": "true"
  },
  {
    "molecule": "Cc1ccc(-c2ccc3c(ccc4sc5c(c43)NC[C@@H](C)NC5=O)n2)cn1",
    "class_name": "false"
  },
  {
    "molecule": "O=C(Nc1ccccc1-c1cn2c(CN3CCNCC3)csc2n1)c1cnc2ccccc2n1",
    "class_name": "false"
  },
  {
    "molecule": "O=c1c(O)c(-c2ccc(O)c(O)c2)oc2cc(O)c(O)c(O)c12",
    "class_name": "true"
  },
  {
    "molecule": "CCn1c(-c2nonc2N)nc2cncc(CNC3CCNCC3)c21",
    "class_name": "false"
  },
  {
    "molecule": "CC(C)C[C@H](NC(=O)CNC(=O)c1cc(Cl)ccc1Cl)B1OC(=O)CC(CC(=O)O)(C(=O)O)O1 (some centres not stated)",
    "class_name": "true"
  },
  {
    "molecule": "Oc1ccc2ccccc2c1SSc1c(O)ccc2ccccc12",
    "class_name": "false"
  },
  {
    "molecule": "Cc1ccc2c(c1)C(=O)[C@@]1(O)CCN(c3ccccc3)C1=N2",
    "class_name": "true"
  },
  {
    "molecule": "Oc1ccc(/C=C/c2cc(O)cc(O)c2)cc1",
    "class_name": "true"
  },
  {
    "molecule": "Cc1nc(-c2ccc(OCC(C)C)c(C#N)c2)sc1C(=O)O",
    "class_name": "false"
  },
  {
    "molecule": "Cn1nc(Nc2ccc(F)cc2)c2c(N)ncnc21",
    "class_name": "true"
  },
  {
    "molecule": "Cc1cccc(Nc2nn(C)c3ncnc(N)c23)c1",
    "class_name": "true"
  },
  {
    "molecule": "NCC(=O)Nc1ccc(-n2nc(C(F)(F)F)cc2-c2ccc3c(ccc4ccccc43)c2)cc1",
    "class_name": "true"
  },
  {
    "molecule": "O=C(O)c1ccc(-c2c[nH]c3ncc(-c4ccccc4)cc23)cc1C1CCCC1",
    "class_name": "false"
  },
  {
    "molecule": "Nc1cccc2c1CN(C1CCC(=O)NC1=O)C2=O (configuration not stated)",
    "class_name": "false"
  },
  {
    "molecule": "CN1C(=O)[C@@H](Cc2c[nH]c3ccccc23)NC1=S",
    "class_name": "false"
  },
  {
    "molecule": "NC1(c2ccc(-c3nc4ccn5c(=O)[nH]nc5c4cc3-c3ccccc3)cc2)CCC1",
    "class_name": "true"
  }
]

###

# assayed_system: MAPK14 (human)
# method: radiometric filter-binding kinase assay
# condition_notes: compound 1.0 µM
Reported residual activity by item:

[
  {
    "molecule": "O=C(NOCC(O)CO)c1ccc(F)c(F)c1Nc1ccc(I)cc1Cl (stereo not given)",
    "residual activity": "102%"
  },
  {
    "molecule": "Cn1nc(Nc2ccc(F)cc2)c2c(N)ncnc21",
    "residual activity": "93%"
  },
  {
    "molecule": "O=C1Nc2nc(-c3c(O)cccc3OCC3CC3)cc(C3CCCNC3)c2CO1 (stereo not given)",
    "residual activity": "91%"
  },
  {
    "molecule": "Cc1ccc(-c2ccc3c(ccc4sc5c(c43)NC[C@@H](C)NC5=O)n2)cn1",
    "residual activity": "94%"
  },
  {
    "molecule": "NC(=O)c1cc2c(-c3cccc(-c4ccccc4)c3)cnc(N)c2s1",
    "residual activity": "101%"
  }
]

###

# assayed_system: BRSK2 (human)
# method: radiometric filter-binding kinase assay
# condition_notes: compound 10.0 µM
Just so you know, the groups by residual activity go like this: band A: < 50%; band B: ≥ 50% and < 90%; band C: ≥ 90%

[
  {
    "compound": "CN1C(=O)[C@@H](Cc2c[nH]c3ccccc23)NC1=S",
    "class_name": "band B"
  },
  {
    "compound": "CC(C)(C#N)c1ccc(N2C(=O)OCc3cnc4ccc(-c5cnc6ccccc6c5)cc4c32)cc1",
    "class_name": "band C"
  },
  {
    "compound": "CNc1nc(-c2ccc3c(N)n[nH]c3c2)cc(N2C[C@@H](C(=O)NC3CCCCC3)CC[C@H]2C)n1",
    "class_name": "band A"
  },
  {
    "compound": "Cc1ccc(Sc2cnc(Nc3cccc(Br)n3)s2)cc1C(=O)N1CCN(C(=O)CN)CC1",
    "class_name": "band A"
  },
  {
    "compound": "CCOC(=O)c1ccc(N2NC(=O)/C(=C/c3ccc([N+](=O)[O-])o3)C2=O)cc1",
    "class_name": "band A"
  },
  {
    "compound": "O=C(N[C@@H](COc1ccc2[nH]c(=O)[nH]c2c1)c1ccccc1)c1cccn(Cc2ccc(F)c(F)c2)c1=O",
    "class_name": "band B"
  },
  {
    "compound": "Cc1ccc(-c2ccc3c(ccc4sc5c(c43)NC[C@@H](C)NC5=O)n2)cn1",
    "class_name": "band A"
  },
  {
    "compound": "Nc1cccc2c1CN(C1CCC(=O)NC1=O)C2=O (centres undefined)",
    "class_name": "band C"
  },
  {
    "compound": "Cc1ccc2c(c1)C(=O)[C@@]1(O)CCN(c3ccccc3)C1=N2",
    "class_name": "band C"
  },
  {
    "compound": "FC(F)(F)c1ccc(-c2ccc(Oc3cncc4sc(-c5nn[nH]n5)cc34)cc2)cc1",
    "class_name": "band C"
  },
  {
    "compound": "NC(=O)c1ccc(-c2ccc(Oc3cncc4sc(-c5nn[nH]n5)cc34)cc2)cc1",
    "class_name": "band C"
  },
  {
    "compound": "O=C(NOC[C@H](O)CO)c1ccc(F)c(F)c1Nc1ccc(I)cc1Cl",
    "class_name": "band C"
  },
  {
    "compound": "CCn1c(-c2nonc2N)nc2cncc(CNC3CCNCC3)c21",
    "class_name": "band A"
  },
  {
    "compound": "CC1=C(CO)C(=O)O[C@@H]([C@@H](C)[C@H]2CC[C@H]3[C@@H]4C[C@H]5O[C@]56[C@@H](O)C=CC(=O)[C@]6(C)C4CC[C@]23C)C1 (some centres undefined)",
    "class_name": "band B"
  },
  {
    "compound": "NC(=O)c1cc(-c2ccnc(NC3CCCCC3)c2)nc(N2CCNCC2)c1",
    "class_name": "band A"
  },
  {
    "compound": "NC(=O)c1cc2c(-c3cccc(-c4ccccc4)c3)cnc(N)c2s1",
    "class_name": "band C"
  },
  {
    "compound": "N#Cc1c(O)c2c(-c3ccc(-c4ccccc4O)cc3)csc2[nH]c1=O",
    "class_name": "band B"
  },
  {
    "compound": "O=C(NOCC(O)CO)c1ccc(F)c(F)c1Nc1ccc(I)cc1Cl (centres undefined)",
    "class_name": "band C"
  },
  {
    "compound": "NC(=O)c1c(NC(=O)C2CC2)sc2c1CCCC2",
    "class_name": "band B"
  },
  {
    "compound": "O=C1Nc2nc(-c3c(O)cccc3OCC3CC3)cc(C3CCCNC3)c2CO1 (centres undefined)",
    "class_name": "band A"
  },
  {
    "compound": "O=C(O)c1cc(N=Nc2ccc(S(=O)(=O)Nc3ccccn3)cc2)ccc1O",
    "class_name": "band B"
  },
  {
    "compound": "Cc1ccc(=O)n(-c2ccccc2)c1",
    "class_name": "band C"
  },
  {
    "compound": "CCc1cncnc1N1CCN(Cc2nc3cc(C(F)(F)F)ccc3[nH]2)CC1",
    "class_name": "band B"
  },
  {
    "compound": "C[C@H]1CCCC(=O)CCC/C=C/c2cc(O)cc(O)c2C(=O)O1",
    "class_name": "band A"
  }
]
